Reference source for all entries: the supplement of paper PMC9170038

Below, each of the sequences is paired with its reported apparent KD of K4 kissing-loop reporter value.
# Tested on: K4 kissing-loop RNA reporter
# TEST DESCRIPTION: apparent KD of K4 kissing-loop reporter; higher = weaker reporter binding
# CONDITION DETAILS: Eterna round: R107; input ligand: theophylline 20 uM
Numbers only here, please. The scale is nM.

{"RESIDUE STRING": "AGUGUUAGGUUAGAUACCAGCCGUCUGUAGAUAAUCCUCAGACCGCCAGUGAUGUUGGCAGGCCCUUGGCAGCUAACAGAACAGA [Orbediqu]", "apparent KD of K4 kissing-loop reporter (nM)": 154}
{"RESIDUE STRING": "UCCUGCAAUCCACCACGAAAGUGGAUGGAUACCAGAGUCGAAAGACUCCCUUGGCAGCCAGUGAUGUUGGAGCAGGUAAAAUAAA", "apparent KD of K4 kissing-loop reporter (nM)": 402}
{"RESIDUE STRING": "GGCAGUGAUGUUGCCUUCGCAAUGCAUGCAGAGGAUAUUCGUUUGGGAAGAAGGCUGCAGCGUUCUCUCGAGUGAUGUUCGGGUG [Same State FMN A GF 19]", "apparent KD of K4 kissing-loop reporter (nM)": 181}
{"RESIDUE STRING": "CCGUGGAGUGAUGUUCCACGUUCUACGGAUACCAGUUGUGCCAGCGGCCCUUGGCAGCCGCACCUUGCAGUGAUGUUGUGAGGCU [Same State Theophylline A Gf 6]", "apparent KD of K4 kissing-loop reporter (nM)": 229}
{"RESIDUE STRING": "AGUGGACGUUACCGGAGUGAUGUUUCGGAUACCAGACACGAAAGUGUCCCUUGGCAGCCGUAGUGAUGUUACGGAGUUCACUAAA [KL-XTheo-A12 #KL 2]", "apparent KD of K4 kissing-loop reporter (nM)": 88.7}

As a next step, examine the sequence that follows.
Tell me its apparent KD of K4 kissing-loop reporter given CAUACGCAUGGAGGAUAUGAGAUUUCUCAUAUUAUUUAAUAUUCUCAGUGAUGUUGAGAUAUAAACUCAGAAGGCCAUGUGUAUG [Ex FMN B 2] as the entry. 245

----------
Below, each of the sequences is paired with its reported apparent KD of K4 kissing-loop reporter value.
# System: K4 kissing-loop RNA reporter;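 further: bound reporter read as fluorescence of individual clusters on recovered sequencing chips by microscopy, with normalized cluster intensities fitted with a binding model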
# TEST DESCRIPTION: apparent KD of K4 kissing-loop reporter; higher = weaker reporter binding
# CONDITION DETAILS: Eterna round: R107; input ligand: arginine 13.2 mM
Numbers only here, please. The scale is nM.

# count of solved cases: 2
{"RESIDUE STRING": "GUGCGGUGGAGGCUACCGCUACUCUGAGAAGGAGCGCAGAUGACUGCAGGUAGGUCGCUUAGAGCUUGCAGUGAUGUUGCAAGUU [Teorzaqu]", "UNIT OF MEASUREMENT": "nM", "apparent KD of K4 kissing-loop reporter": 157}
{"RESIDUE STRING": "UGACUGGACUGAAGGAGCGCUAAACUCCUAGUGAUGUUAGGGAAACGAGACAAAGUCUCGAGGCAGGUAGGUCGCAGUCUAGUCU [FiskerMod 1 - Jieux - Same State - Arginine B]", "UNIT OF MEASUREMENT": "nM", "apparent KD of K4 kissing-loop reporter": 199}

Give apparent KD of K4 kissing-loop reporter only, for AGACUACCACACUGUCAAUAGACAGUGAACUAGGAUAUGCUGAUAAGCAGAAGGAGUGAUGUUCCCAGGUAGUCAAUAAAAUAAU [FmnAX 13 C66] , using K4 kissing-loop RNA reporter data. 185

Give apparent KD of K4 kissing-loop reporter only, for AUGUAUGAAUUAGGAUAUCGUGAGCCAUGCAUAUAUAUGAUAAAUGGAUAUGUCGUAGUGAUGUUACGAGAAGGAGUGUGGAGUA [KL-XFMN-B2] , using K4 kissing-loop RNA reporter data. 73.6

Give apparent KD of K4 kissing-loop reporter only, for CUGACUCAAUAGUCAGUGAUGUUGACUGGACGAGGACCGGUACGGCCGCCACUCGAGAGUGGUGUAAAAUAUGUCACAGAGUCAG [Tryp A SS t3b] , using K4 kissing-loop RNA reporter data. 194

Give apparent KD of K4 kissing-loop reporter only, for GCUAUCUGAGCCCAGUGAUGUUGAGUGCUGAAGGAUAUGCGAUAGAGCAGAAGGUCAAGAACAUUGUUCGAUUAUCAAAACAAGU [theeternabot_exclusion_KL_FMN_A_35] , using K4 kissing-loop RNA reporter data. 264

Give apparent KD of K4 kissing-loop reporter only, for AAUUAAUACAGAAGGAGCGUGAAAUUAUCUACUUUUAACUUAGCGAGUGAUGUUCGUUUUUCACAGGUAGGUCGCUGUAUAUUUA [JR_ExcArginiB_Sub009] , using K4 kissing-loop RNA reporter data. 214

Give apparent KD of K4 kissing-loop reporter only, for UGAUAGGACAGAAGGAGCGGAGCUGGUCAAAGACCAGCAAUACGUUGAAAAGGAGUGAUGUUCCAGGUAGGUCGCUGUCCUAUCU [ArgBX 27 #SwitchBubble #StaticStem] , using K4 kissing-loop RNA reporter data. 103

Give apparent KD of K4 kissing-loop reporter only, for CAGAUCACAGAGUGAUGUUCUGUGUCCGAAGGAGCGCGCGAGAGCGCAGGUAGGUCGCGGAUACAGUUGACGUACCAUCUAGACA [Arg A Ex t3b] , using K4 kissing-loop RNA reporter data. 244

Give apparent KD of K4 kissing-loop reporter only, for UGUGAACAAAAGUAGAGUGGACCACUAUAGCGAGGACCGGUACGGCCGCCACUCGUACAUGAAUUCAGUGAUGUUGAAAAGAGCU [whbob_EX_Tryp_A_t13] , using K4 kissing-loop RNA reporter data. 413

Give apparent KD of K4 kissing-loop reporter only, for CGUGAAUGUCGUCAGUCAUCGGUCCAUGCACGAGGACCGGUACGGCCGCCACUCGAGCGUGGCAGUGAUGUUGCCAGCGCACUAA [KL-XTryp-A13] , using K4 kissing-loop RNA reporter data. 115

Give apparent KD of K4 kissing-loop reporter only, for CACUGGGCGAGUGAUGUUCGCUCACGUGAUACCAGUGCCAUCCAACACCCUUGGCAGCAUGCGGGCAGUGAUGUUGUCCAAAGAA [Exclusion Theophylline A GF9] , using K4 kissing-loop RNA reporter data. 187

----------
# Tested on: MS2 coat protein
# TEST DESCRIPTION: apparent KD of MS2 coat protein; designed switch direction (-1 OFF switch, 1 ON switch): -1; higher = weaker reporter binding
# CONDITION DETAILS: input ligand: none
METRIC: apparent KD of MS2 coat protein

# count of solved cases: 4
{"RESIDUE STRING": "AAAUUCUGAGGAUAUCGAUGUUUGUACAUGAGGAUCACCCAUGUCCUUUUUAUUUUUUCUCGAGAAGGCAGUGUAU [JR_E5_Sub100] (Eterna round: R96, puzzle: Exclusion 5)", "apparent KD of MS2 coat protein": "40.7 nM"}
{"RESIDUE STRING": "CACGUGAUUGGGCUCAUUAACAUGAGGAUCACCCAUGUGUGUGUUUUAGGAUGCCCACAAGCUUUUUCGCCGUCUAG [Eternabot (L1) Solution 3] (Eterna round: R97, puzzle: Sensor, turn-off variant 1)", "apparent KD of MS2 coat protein": "64.8 nM"}
{"RESIDUE STRING": "AUUGUGUUAGGAUAUGCUUAUGGUGGGUAGUCCAGUAUGGAGUAGAAGGGACAUGAGGAUCACCCAUGUGCUCA [EX4 #38] (Eterna round: R97, puzzle: Exclusion 4)", "apparent KD of MS2 coat protein": "137 nM"}
{"RESIDUE STRING": "CCUCAGUCACAGGAUAUGCUCAUCUAAUGAUGAGCAGAAGGGUGAACAUGAGGAUCACCCAUGUUUACCAGGGU [Omei Ex6 E5] (Eterna round: R97, puzzle: Exclusion 6)", "apparent KD of MS2 coat protein": "161 nM"}

As a next step, examine the sequence that follows.
Tell me its apparent KD of MS2 coat protein given CAGCCCUGAGGAUAUCCCUACUUGCACAUGAGGAUCACCCAUGUCCUCCUCCGGGCUUCGGGAGAAGGCAGGUCUC [Megrez-7.5] (Eterna round: R97, puzzle: Exclusion 5) as the entry. 17 nM

----------
# Test system: MS2 coat protein
# TEST DESCRIPTION: apparent KD of MS2 coat protein; higher = weaker reporter binding
# CONDITION DETAILS: Eterna round: R107; input ligand: arginine 13.2 mM
METRIC: apparent KD of MS2 coat protein (µM)
Numbers only here, please. The scale is µM.

# count of solved cases: 5
{"RESIDUE STRING": "AACGUAUACAGAAGGAGCGUGAAAUAAGUAAAUUAAUAAUAAACAUGAGGAUCACCCAUGUCACAGGUAGGUCGCUGUAUUCGUA [JR_ExcArginiB_Sub017]", "UNIT OF MEASUREMENT": "µM", "apparent KD of MS2 coat protein": 0.0155}
{"RESIDUE STRING": "AGCGCAGGUCCUGAUACCAGUGACAUGAGGAUCACCCAUGUCCGAUGGGCCUGCCUCUGACACCCUUGGCAGCAGGGCUUGUGCU [#14 Exclusion-TheophyllineB]", "UNIT OF MEASUREMENT": "µM", "apparent KD of MS2 coat protein": 0.02}
{"RESIDUE STRING": "ACUAACUAUAGUGAUACCAGACGUACAUGAGGAUCACCCAUGUUACAUUCUUGGUUAAAAGUCCCUUGGCAGCACGAUAAGUUCG [JR_Nu_ExcTheophyB_Sub025]", "UNIT OF MEASUREMENT": "µM", "apparent KD of MS2 coat protein": 0.0097}
{"RESIDUE STRING": "AGUCUUAUAGGAAGGAGCGCAAUCAUCACAUGAGGAUCACCCAUGUCAAGGUGAGAGUCAUUGCAGGUAGGUCGCCUAACUAAGA [Same State - Arginine B (Freestyle 9)]", "UNIT OF MEASUREMENT": "µM", "apparent KD of MS2 coat protein": 0.15}
{"RESIDUE STRING": "CGAUCCUGCAGGGAUACCAGCGCCGCUUGAUAACUGUGCACAUGAGGAUCACCCAUGUAGCGCCCUUGGCAGCCCAGCUAGAGGG [Same State Theophylline B GF25]", "UNIT OF MEASUREMENT": "µM", "apparent KD of MS2 coat protein": 0.0129}

As a next step, examine the sequence that follows.
Tell me its apparent KD of MS2 coat protein given UAUGAGCGCACGGCCGCCACUGUCUUCAUCUGUUUGUCUACAUGAGGAUCACCCAUGUUGGUUUACAGGACCGGGUGCAACUAUG [SSTryp B #10] as the entry. 0.0269
